- Tested on: HT29 colon
- assay-notes: NCI-60 one-dose screen, 48 h (100 = growth as untreated, 0 = no growth, -100 = all killed)
- condition-description: 10 µM unless noted
Compounds without any hit were thinned out: in the full panel of roughly 83,000, 20% have a hit.
observable: growth (%)
Answers are plain numbers, in %.

The cases that follow already have their growth on record.
1) CCN1CCN(c2cc(-c3cn[nH]c3-c3cc(C)cc(OC)c3)nc(-c3cccnc3)n2)CC1
33.4
2) O=C(Nc1ccc(Cl)cc1)c1cc2c(cc1O)[nH]c1ccccc12
1.2
3) O=C(Oc1ccc[nH]c1=O)c1cccc(Cl)c1
97.4
4) Nc1ccc2c3c(cccc13)-c1ccccc1-2
108
5) S=C1SCN(Cc2ccccc2)CN1Cc1ccco1
27.4
6) COC(=O)[C@]1(CCSC)N[C@H](c2cn(-c3ccccc3)nc2C)[C@@H]2C(=O)N(c3ccc(C)cc3)C(=O)[C@@H]21
99.7

For every item below, please supply its growth.
1. COc1cc([C@@H]2c3cc4c(cc3C(O[C@@H]3O[C@@H]5CO[C@@H](c6cccs6)OC5[C@H](O)[C@H]3O)C3COC(=O)[C@@H]32)OCO4)cc(OC)c1O (some centres not stated)
2. NC(=O)SCC(=O)Nc1ccccc1-c1ccccc1
3. Cc1cccc(Cl)c1NC(=O)c1ccc2nc(NC(=O)NC3CC(C)(C)NC(C)(C)C3)sc2c1
4. Nc1ccccc1-c1ccc([N+](=O)[O-])cc1

-24.8
87.2
59.3
78.1

For every item below, please supply its growth.
1. CN(C)c1cccc2c(S(=O)(=O)N[C@H]3CC[C@H]4[C@@H]5CCc6cc(O)ccc6[C@H]5CC[C@]34C)cccc12
2. CCC(c1ccccc1)c1noc(CCN(CC)CC)n1 (configuration not stated)
3. O=C(Nc1ccc(OCc2nnc(-c3ccccc3)o2)c(F)c1)Nc1ccc(Cl)c(C(F)(F)F)c1
4. O=C(Nc1ccc(C2=NCCCN2)cc1)Nc1ccc(C2=NCCCN2)cc1
5. C/C(=N/N=C(N)N)c1ccc(Cl)cc1
6. CC1(C)OC(=O)C(=Cc2ccccc2Br)C(=O)O1
7. Cc1cc([N+](=O)[O-])c(C)cc1C(=O)O
8. CCCn1cnc2c1c(=O)n(CCCCC(C)=O)c(=O)n2C

[2.71, 117, 9.92, 92.4, 80.9, 103, 104, 95.8]

For every item below, please supply its growth.
1. C/C(=C\CCc1ccsc1)CC/C=C(\C)CCCN1CCN(CCO)CC1
2. O=C(c1nn(-c2ccc(Cl)cc2)cc1O)n1nc(C(F)(F)F)cc1-c1ccccc1
3. CCCCCCCC/C=C\CCCCCCCCOc1ccccc1CC(=O)NCC[N+]1(C)CCCC1
4. ClC1=C(Cl)C(Cl)=C(Cl)C1=Cc1ccc(Cl)cc1

[-34.4, 37.8, 18, -30.1]

For every item below, please supply its growth.
1. C/C(=C\CCc1ccoc1)CC/C=C(\C)CCCN1CCC(CO)CC1
2. CCCC[N+](CCCC)=c1ccc2nc3c(C)cc(N(CC)CC)cc3sc-2c1
3. CSc1nnc(C2=CC(=O)c3ccccc3C2=O)n1-c1ccccc1
4. CN(CCOc1ccc(CC2SC(=O)NC2=O)cc1)c1ccccn1 (configuration not stated)
5. CCOC(=O)c1c(C)nc(C)c(C(=O)OCC)c1-c1cccnc1
6. O=C1CN(CO)C(=O)CN1CO

1: 6.48; 2: -68.6; 3: 110; 4: 117; 5: 96.5; 6: 109

For every item below, please supply its growth.
1. CC(=O)c1ccc2c3c(n(C)c2c1)CCCC3
2. COc1ccc2c(c1)nc(N)c1c3ccccc3cn21
3. Cc1cc2c(cc1[N+](=O)[O-])NC(CNC(C)C)CC2 (configuration not stated)
4. NC(=O)c1ncn([C@@H]2O[C@H](CO)[C@@H](O)[C@H]2O)n1
5. O=C1OC(c2ccc(-c3ccccc3)cc2)=C/C1=C/c1cccs1
6. O=C(/C(=N/O)S(=O)(=O)c1ccccc1)c1cccs1
7. C/C(=N\N1CC(=O)NC1=O)c1ccc([N+](=O)[O-])o1

[92.6, 73.8, 88.8, 52.5, 125, 107, 102]

For every item below, please supply its growth.
1. CCCc1nn(C)c2c(=O)[nH]c(-c3cc(S(=O)(=O)N4CCN(C)CC4)ccc3OCC)nc12
2. CCCCCCCC1(C)NC(=O)NC1=O (configuration not stated)

1. 99.1
2. 114

For every item below, please supply its growth.
1. O=[P@@]1(c2ccccc2)O[C@H](COCc2ccccc2)[C@@H](OCc2ccccc2)[C@H](OCc2ccccc2)[C@H]1NCc1ccccc1
2. Cc1cc(N2CCOCC2)nc(N2CCOCC2)n1
3. Cc1nn(-c2ccccc2)c2c1oc(=O)c1cc(Cl)ccc12
4. C[C@@H]1CC[C@H]2[C@@H](C)C(O)O[C@@H]3O[C@]4(C)CC[C@@H]1[C@]32OO4 (some centres not stated)
5. CCOC(=O)c1cc(-c2cccnc2)nc2c(Cl)cc(Cl)cc12

10.9
103
101
17.7
88

* * *

- System: MALME-3M melanoma
- assay-notes: NCI-60 one-dose screen, 48 h (100 = growth as untreated, 0 = no growth, -100 = all killed)
- condition-description: 10 µM unless noted
This is part of a sample that, as a whole, favours compounds with a hit. Of some 83,000 tested, about 20% had one in any assay. The source made the active and inactive calls. Rule for the calls: active = growth percent below 10; inactive = the rest.
observable: growth

1. NNC(=O)C1CC2c3ccccc3C1c1ccccc12 (stereo not drawn)
123% (inactive)
2. O=C(C(=O)N1CCCCC1)c1ccc(OC2OC(CO)C(O)C(O)C2O)cc1 (stereo not drawn)
101% (inactive)
3. NC(=O)SCC(=O)Nc1ccccc1-c1ccccc1
158% (inactive)
4. CN1COc2ccc3ccccc3c2C1
111% (inactive)
5. CCC(=O)Nc1ccccc1C#C/C=C\C#Cc1ccccc1C(F)(F)F
54.4% (inactive)

For every item below, please supply its growth.
1. Cc1cc(CC(=O)O)n(C)c1C(=O)c1ccc(Cl)cc1
2. CSc1nc2c(c(=O)[nH]1)C(c1ccc(Cl)cc1)C1=C(N2)/C(=C/c2ccc(Cl)cc2)CNC1 (stereo not drawn)
3. CC(c1cc(Cl)ccc1O)c1cc(Cl)ccc1O
4. CC[C@]1(O)CC2CN(CCc3c([nH]c4ccccc34)[C@@](C(=O)OC)(c3cc4c(cc3OC)N(C)[C@H]3[C@@](O)(C(=O)OC)[C@H](OC(C)=O)[C@]5(CC)C=CCN6CC[C@]43[C@@H]65)C2)C1 (stereo partly drawn)
5. COc1ccc(/C=N/NC(=O)c2ccc(S(C)(=O)=O)cc2)cc1OC
6. Nc1ccccc1-c1ccc([N+](=O)[O-])cc1
7. COc1ccc(-c2nn(-c3cccc(Cl)c3)cc2C2CC(c3ccccc3)=NN2C(C)=O)cc1 (stereo not drawn)
8. COc1cc2c(cc1OC)C1CCN3C(=O)CCC3N1CC2 (stereo not drawn)

["102% (inactive)", "91.9% (inactive)", "16.5% (inactive)", "38.4% (inactive)", "107% (inactive)", "111% (inactive)", "46.8% (inactive)", "117% (inactive)"]

For every item below, please supply its growth.
1. Cc1ccc(C=C2C(Cl)=C(Cl)C(Cl)=C2Cl)cc1
2. O=C(C(=O)N1CCOCC1)c1ccc(OC2OC(CO)C(O)C(O)C2O)cc1 (stereo not drawn)
3. COc1ccc(-c2noc(N)c2-c2cc(OC)c3c(c2)OCO3)cc1
4. c1ccc2cc(C[n+]3ccn(CCCCCCCn4cc[n+](Cc5ccc6ccccc6c5)c4)c3)ccc2c1
5. COc1cc(/C=C2\COc3ccc(O)cc3C2=O)cc(OC)c1

-45.1% (active)
129% (inactive)
-2.12% (active)
-9.13% (active)
70.3% (inactive)

* * *

- Test system: OVCAR-5 ovarian
- assay-notes: NCI-60 one-dose screen, 48 h (100 = growth as untreated, 0 = no growth, -100 = all killed)
- condition-description: 10 µM unless noted
The panel holds about 83,000 compounds, 20% with a hit somewhere; the sample as a whole holds those more often.
Quick rule: growth of at least 60% means true (1), below that means false (0).

1. Cc1ccc(NC(=O)Nc2ccc(-c3cccnc3)cc2N2CCC(CO)CC2)cc1
false (0)
2. COc1ccc(-c2nc3sccn3c2-c2ccnc(S(C)(=O)=O)n2)cc1
true (1)
3. Cc1c(C(N)=O)sc2c1C(=O)N(Cc1ccccc1)C1=NN=C(c3ccc(Cl)cc3)CN12
false (0)
4. COc1ccc(-c2cnnn2-c2cc(OC)c3c(c2)OCO3)cc1
false (0)

As a next step, examine the compound that follows.
Hello, I need to know if O=C(CSCC(=O)N/N=C/c1ccccc1O)N/N=C\c1ccccc1O has measured growth not below 60%. Thanks!
false (0)
